- system.name: SARS-CoV-2 NSP3 macrodomain (Mac1), P43 crystal form (Severe acute respiratory syndrome coronavirus 2)
- Format: binding
- condition.label: DMSO background map, event 1
endpoint.label: PanDDA run, DMSO background map: 1-BDC

{"compound": "OC1(CNc2ncnc3[nH]ccc23)CCCCC1", "endpoint.label": "PanDDA run, DMSO background map: 1-BDC", "recorded.number": 0.22}
{"compound": "OC1(CNc2ncnc3[nH]ccc23)CCCSC1 (stereo not shown)", "endpoint.label": "PanDDA run, DMSO background map: 1-BDC", "recorded.number": 0.21}
{"compound": "OC1(CNc2ncnc3[nH]ccc23)CCC(F)(F)CC1", "endpoint.label": "PanDDA run, DMSO background map: 1-BDC", "recorded.number": 0.16}
{"compound": "OC1CCC(O)(CNc2ncnc3[nH]ccc23)CC1 (stereo not shown)", "endpoint.label": "PanDDA run, DMSO background map: 1-BDC", "recorded.number": 0.07}
{"compound": "Cc1sc2ncnc(Sc3ccccc3C(=O)O)c2c1C", "endpoint.label": "PanDDA run, DMSO background map: 1-BDC", "recorded.number": 0.18}
{"compound": "Cc1c(C)n(Cc2ccccc2)c2ncnc(N)c12", "endpoint.label": "PanDDA run, DMSO background map: 1-BDC", "recorded.number": 0.15}
{"compound": "CC(CNC(=O)c1ccc2c(c1)CCC(=O)N2)C(=O)O (stereo not shown)", "endpoint.label": "PanDDA run, DMSO background map: 1-BDC", "recorded.number": 0.25}

====

- system.name: SARS-CoV-2 NSP3 macrodomain (Mac1), P43 crystal form (Severe acute respiratory syndrome coronavirus 2)
- Format: binding
- condition.label: PanDDA background density correction
Please mark 1 if the recorded 1-BDC is equal to or greater than 0.2, and 0 if it falls below.

{"molecule": "CC(C)(O)C1C2CCCCC2CN1c1ncnc2[nH]ccc12 (stereo not shown)", "discrete.label": 1}
{"molecule": "CC(C)(CO)Nc1ncnc2[nH]ccc12", "discrete.label": 0}
{"molecule": "OCC1C=CCCN1c1ncnc2[nH]ccc12 (stereo not shown)", "discrete.label": 0}
{"molecule": "CCC(CO)Nc1ncnc2[nH]ccc12 (stereo not shown)", "discrete.label": 0}
{"molecule": "CC(CNC(=O)c1ccc2c(c1)CCC(=O)N2)C(=O)O (stereo not shown)", "discrete.label": 0}
{"molecule": "CC1CCC(O)(CNc2ncnc3[nH]ccc23)CC1 (stereo not shown)", "discrete.label": 1}
{"molecule": "OCC(O)C1CCCN1c1ncnc2[nH]ccc12 (stereo not shown)", "discrete.label": 0}
{"molecule": "C[C@@H]1CCN(c2ncnc3[nH]ccc23)[C@H](CO)C1 (racemic)", "discrete.label": 0}
{"molecule": "CC1(C)CCC(CO)N(c2ncnc3[nH]ccc23)C1 (stereo not shown)", "discrete.label": 0}
{"molecule": "OCCC(CO)Nc1ncnc2[nH]ccc12 (stereo not shown)", "discrete.label": 1}
{"molecule": "OCC(CC1CCOC1)Nc1ncnc2[nH]ccc12 (stereo not shown)", "discrete.label": 0}
{"molecule": "OCC(CC1CCCC1)Nc1ncnc2[nH]ccc12 (stereo not shown)", "discrete.label": 0}
{"molecule": "CC(O)C(C)Nc1ncnc2[nH]ccc12 (stereo not shown)", "discrete.label": 0}
{"molecule": "C#CCC(CO)Nc1ncnc2[nH]ccc12 (stereo not shown)", "discrete.label": 0}
{"molecule": "C[C@@H](O)[C@H](CO)Nc1ncnc2[nH]ccc12.O=C(O)C(F)(F)F", "discrete.label": 0}
{"molecule": "O[C@H]1CC[C@@H]2CCN(c3ncnc4[nH]ccc34)[C@@H]21", "discrete.label": 0}
{"molecule": "O[C@H]1COC[C@@H]1Nc1ncnc2[nH]ccc12", "discrete.label": 0}
{"molecule": "O=C(O)C(c1ccccc1)n1sc2ccccc2c1=O (stereo not shown)", "discrete.label": 1}
{"molecule": "OCC1CCCN1c1ncnc2[nH]ccc12 (stereo not shown)", "discrete.label": 1}
{"molecule": "OC1(CNc2ncnc3[nH]ccc23)CCC(F)(F)CC1", "discrete.label": 0}
{"molecule": "Nc1nnc(SCCn2c(=O)oc3ccccc32)s1", "discrete.label": 0}

====

- system.name: SARS-CoV-2 NSP3 macrodomain (Mac1), P43 crystal form (Severe acute respiratory syndrome coronavirus 2, UniProt P0DTD1)
- Type: binding
- condition.label: crystal soak 10 mM; DMSO background map
endpoint.label: PanDDA run, DMSO background map: Hit

{"compound": "O=C(O)C(F)(F)F.OCC12CC(CN1c1ncnc3[nH]ccc13)C2", "result": "TRUE"}
{"compound": "Cc1nn(C)cc1C1CCC(CO)N1c1ncnc2[nH]ccc12 (stereo not shown)", "result": "TRUE"}
{"compound": "OCC1CCCN1c1ncnc2[nH]ccc12 (stereo not shown)", "result": "TRUE"}
{"compound": "O[C@H]1CC[C@@H]2CCN(c3ncnc4[nH]ccc34)[C@@H]21", "result": "TRUE"}
{"compound": "O=C(O)C(F)(F)F.OCC1(Nc2ncnc3[nH]ccc23)CC1", "result": "TRUE"}
{"compound": "OCC(Cc1c[nH]c2ccccc12)Nc1ncnc2[nH]ccc12 (stereo not shown)", "result": "TRUE"}
{"compound": "O=C(O)C(F)(F)F.OCC(Nc1ncnc2[nH]ccc12)C1CCCO1 (stereo not shown)", "result": "TRUE"}
{"compound": "O=C(O)C(F)(F)F.OCC1(Nc2ncnc3[nH]ccc23)CCC1", "result": "TRUE"}
{"compound": "OCC(Cc1ccc(I)cc1)Nc1ncnc2[nH]ccc12 (stereo not shown)", "result": "TRUE"}
{"compound": "Cc1ccc(CC(CO)Nc2ncnc3[nH]ccc23)cc1 (stereo not shown)", "result": "TRUE"}

====

- system.name: human macrodomain MacroD2 (Homo sapiens, UniProt A1Z1Q3)
- Sequence (A1Z1Q3 with tags, fused parts or gaps): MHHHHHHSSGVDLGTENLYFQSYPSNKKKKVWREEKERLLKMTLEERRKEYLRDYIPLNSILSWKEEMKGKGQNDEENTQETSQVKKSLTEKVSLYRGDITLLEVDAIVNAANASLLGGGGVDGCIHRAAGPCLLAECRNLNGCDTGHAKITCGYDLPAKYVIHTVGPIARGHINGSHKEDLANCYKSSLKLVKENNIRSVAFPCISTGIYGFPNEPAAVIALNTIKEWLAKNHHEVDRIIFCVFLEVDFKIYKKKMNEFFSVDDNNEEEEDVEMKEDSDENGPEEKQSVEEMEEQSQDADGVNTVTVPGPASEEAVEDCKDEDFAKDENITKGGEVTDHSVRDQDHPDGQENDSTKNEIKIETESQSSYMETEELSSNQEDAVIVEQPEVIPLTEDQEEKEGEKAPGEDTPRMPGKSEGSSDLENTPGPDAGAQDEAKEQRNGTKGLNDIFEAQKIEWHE
- assay.text: HTRF peptide displacement assay, MacroD2
- Assay type: binding
endpoint.label: IC50

{"compound": "Cc1c[nH]c2ncnc(NCC3(O)CCCCC3)c12 [AVI-3761]", "system.name": "human macrodomain MacroD2 (Homo sapiens, UniProt A1Z1Q3)", "endpoint.label": "IC50", "result": "> 1000 µM"}

====

- system.name: SARS-CoV-2 NSP3 macrodomain (Mac1), P43 crystal form (Severe acute respiratory syndrome coronavirus 2)
- Type: binding
- condition.label: ligand conformations modeled in Mac1 crystal structure
endpoint.label: Total number of conformations

{"compound": "CCC1(O)CCN(c2ncnc3[nH]ccc23)C1 (centres unmarked) [AVI-612]", "endpoint.label": "Total number of conformations", "recorded.number": 1}
{"compound": "Cc1c(C)n(Cc2ccccc2)c2ncnc(N)c12 [AVI-321]", "endpoint.label": "Total number of conformations", "recorded.number": 1}
{"compound": "O=C1CCc2cc(C(=O)N3CC(C(=O)O)CCC34CCCC4)c(F)cc2N1 (centres unmarked) [AVI-338]", "endpoint.label": "Total number of conformations", "recorded.number": 1}
{"compound": "Cc1c[nH]c2ncnc(NCC3(O)CCC(O)CC3)c12 (centres unmarked) [AVI-4329]", "endpoint.label": "Total number of conformations", "recorded.number": 2}
{"compound": "NC(=O)C1(O)CCN(c2ncnc3[nH]ccc23)C1 (centres unmarked) [AVI-611]", "endpoint.label": "Total number of conformations", "recorded.number": 2}

====

- system.name: SARS-CoV-2 NSP3 macrodomain (Mac1) (Severe acute respiratory syndrome coronavirus 2, UniProt P0DTD1)
- assay.text: biochemical
- Assay type: binding
- condition.label: preliminary screen, compound at 200 μM, mean of 3-4 technical replicates; read-out: % competition in HTRF assay

{"compound": "CC1(C)C[C@@H](CO)N(c2ncnc3[nH]ccc23)C1.O=C(O)C(F)(F)F [AVI-3704]", "inhibition at 200 µM / %": 90}
{"compound": "OCC(Nc1ncnc2[nH]ccc12)C1CC1 (stereo not drawn) [AVI-3651]", "inhibition at 200 µM / %": 85}
{"compound": "OCC(Cc1ccccc1)Nc1ncnc2[nH]ccc12 (stereo not drawn) [AVI-313]", "inhibition at 200 µM / %": 75}

====

- system.name: SARS-CoV-2 NSP3 macrodomain (Mac1), P43 crystal form (Severe acute respiratory syndrome coronavirus 2, UniProt P0DTD1)
- Format: binding
- condition.label: crystal soak 10 mM; DMSO background map
endpoint.label: PanDDA run, DMSO background map: 1-BDC

{"compound": "O=C(O)C(F)(F)F.O[C@H]1CCC[C@@H]1Nc1ncnc2[nH]ccc12", "endpoint.label": "PanDDA run, DMSO background map: 1-BDC", "recorded.number": 0.11}
{"compound": "CCC(Nc1ncnc2[nH]ccc12)C(C)(C)O (stereo not shown)", "endpoint.label": "PanDDA run, DMSO background map: 1-BDC", "recorded.number": 0.14}
{"compound": "OCC(CC1CCCO1)Nc1ncnc2[nH]ccc12 (stereo not shown)", "endpoint.label": "PanDDA run, DMSO background map: 1-BDC", "recorded.number": 0.23}
{"compound": "OCC(Cc1nccs1)Nc1ncnc2[nH]ccc12 (stereo not shown)", "endpoint.label": "PanDDA run, DMSO background map: 1-BDC", "recorded.number": 0.19}
{"compound": "O=C(O)C(F)(F)F.OCC(Nc1ncnc2[nH]ccc12)C(O)C1CCCCC1 (stereo not shown)", "endpoint.label": "PanDDA run, DMSO background map: 1-BDC", "recorded.number": 0.15}
{"compound": "OC1CCCN(c2ncnc3[nH]ccc23)C1 (stereo not shown)", "endpoint.label": "PanDDA run, DMSO background map: 1-BDC", "recorded.number": 0.22}
{"compound": "OCC(Nc1ncnc2[nH]ccc12)C1CC1 (stereo not shown)", "endpoint.label": "PanDDA run, DMSO background map: 1-BDC", "recorded.number": 0.18}
{"compound": "Cc1ccc(CC(CO)Nc2ncnc3[nH]ccc23)cc1 (stereo not shown)", "endpoint.label": "PanDDA run, DMSO background map: 1-BDC", "recorded.number": 0.15}
{"compound": "OCC(CC(O)c1ccccc1)Nc1ncnc2[nH]ccc12 (stereo not shown)", "endpoint.label": "PanDDA run, DMSO background map: 1-BDC", "recorded.number": 0.17}
{"compound": "Cc1ccc(CC(CO)Nc2ncnc3[nH]ccc23)cc1C (stereo not shown)", "endpoint.label": "PanDDA run, DMSO background map: 1-BDC", "recorded.number": 0.15}
